Biological target: T1, monocyte chemo-attractant protein-1 (MCP-1) (Homo sapiens (Human)., UniProt P13500)
T1 construct: MCP-1 (monocyte chemo-attractant protein-1), chemokine; synthetic gene optimised for E. coli in pET26b; Probably the mature human chemokine, as in PDB 2BDN; also called monocyte chemotactic protein-1; antigen; source: E. coli Rosetta2 (DE3), purified (Ni-NTA, SEC)
Experiment: SPR; Biacore T200; MCP-1 immobilised on a CM5 chip by amine coupling (~220 RU), scFv injected at 30 µl/min; PBS with 0.005% Tween-20; 25°C; global fit, 1:1 Langmuir model; KD from koff/kon
Details: both partners purified
# kon listing for each entry below
Write the number in M⁻¹ s⁻¹ without appending the unit.

11K2 scFv mutein L-N31K (scFv, V domains shown, PDB 2BDN heavy chain; PDB 2BDN light chain) with the stated change; also called L-D31K (printed once in the results)) VH: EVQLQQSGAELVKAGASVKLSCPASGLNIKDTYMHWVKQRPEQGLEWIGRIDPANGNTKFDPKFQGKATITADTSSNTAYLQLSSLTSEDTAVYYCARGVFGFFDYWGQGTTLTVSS VL: DIQMTQSSSSFSVSLGDRVTITCKATEDIYKRLAWYQQKPGSAPRLLISGATSLETGVPSRFSGSGSGKDYTLSITSLQTEDVATYYCQQFWSAPYTFGGGTKLEIK
340000
11K2 scFv mutein H-N28Q (scFv, V domains shown, PDB 2BDN heavy chain) with the stated change; PDB 2BDN light chain)) VH: EVQLQQSGAELVKAGASVKLSCPASGLQIKDTYMHWVKQRPEQGLEWIGRIDPANGNTKFDPKFQGKATITADTSSNTAYLQLSSLTSEDTAVYYCARGVFGFFDYWGQGTTLTVSS VL: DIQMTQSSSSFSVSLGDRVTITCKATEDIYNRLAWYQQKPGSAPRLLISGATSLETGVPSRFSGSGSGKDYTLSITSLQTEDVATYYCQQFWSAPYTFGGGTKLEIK
220000

// moving on: another record for kon
IN: I would be grateful if you could share the reported kon for 11K2 scFv mutein H-L27R (scFv, V domains shown, PDB 2BDN heavy chain) with the stated change; PDB 2BDN light chain)) VH: EVQLQQSGAELVKAGASVKLSCPASGRNIKDTYMHWVKQRPEQGLEWIGRIDPANGNTKFDPKFQGKATITADTSSNTAYLQLSSLTSEDTAVYYCARGVFGFFDYWGQGTTLTVSS VL: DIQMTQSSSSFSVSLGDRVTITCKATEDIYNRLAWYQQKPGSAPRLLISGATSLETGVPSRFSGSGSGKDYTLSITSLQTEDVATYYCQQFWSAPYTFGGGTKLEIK .
OUT: 140000
